experiment.summary: Cell Viability - Jurkat (AID 426);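 also: potency is read from the fitted curve at half-maximal effect; cells exposed to compound for 40 hours at 37 °C before ATP read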
reported.conditions: qHTS
Inconclusive results are not listed. Active and inactive are the calls of the source.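 The calls were made as follows: active = dose-dependent loss of cell ATP signal giving a full or clear fitted curve, ranked by lower potency value; inconclusive = weak partial curve or response only at the top dose; inactive = no loss of viability signal.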
Outcome field: choose from True = active, False = inactive

Consider the following illustrative entries.
1. O=C(Oc1ccccc1)c1ccccc1O	False
2. CC(C)(C)c1ccc(O)c(O)c1	True
3. CCCCC(CC)COC(=O)c1ccccc1C(=O)O (stereo not drawn)	False
4. Oc1ccccc1	False
5. Nc1cccc2c(N)cccc12	False
6. CC(C)(c1ccc(O)cc1)c1ccc(O)cc1	False

Hi, sorry to bother you, what did the test record for OCc1c[nH]c2ccccc12 ?
False

Hi, sorry to bother you, what did the test record for CC(C)C(C)(C)C(C)(C)C(C)(C)S ?
False

====

experiment.summary: qHTS of pediatric cancer cell lines to identify multiple opportunities for drug repurposing: Primary screen for SJ-GBM2 cells (AID 1347091)
reported.conditions: SJ-GBM2 viability, CellTiter-Glo luminescence, 48 h; series mostly up to 46 µM
Procedure: Drug repurposing or repositioning has been offered as a strategy for drug development in oncology programs. […] [1] Shen, M et al. Quantitative high-throughput phenotypic screening of pediatric cancer cell lines identifies multiple opportunities for drug repurposing. […] Cells were assayed in growth media at a density of 500-1,000 cells/well. […] After a 15 min incubation at room temperature, samples were analyzed for luminescence intensity using a ViewLux High-throughput CCD imager equipped with clear filters.
Inconclusive results are not listed. The source made the active and inactive calls. The call rests on the fitted dose curve; in most records, active means well fitted cell-killing curve with a large enough effect; inconclusive means small, poorly fitted or top-dose-only effect; inactive means no such curve, though single readings can be large or run the other way.
observed.property: outcome

Look over these answered cases.
1) C=CC[N+]1([C@H]2C[C@H]3[C@@H]4CC[C@H]5C[C@H](OC(C)=O)[C@@H](N6CCCCC6)C[C@]5(C)[C@H]4CC[C@]3(C)[C@H]2OC(=O)CC)CCCCC1	inactive
2) O=C(CCCCCCCCC#CI)Oc1ccccc1	inactive
3) COc1ccc2c(c1)CCCC2=O	inactive
4) CN1[C@@H]2CC[C@H]1CC(NC(=O)n1c(=O)[nH]c3ccccc31)C2 (stereo partly specified)	inactive
5) CCC(C(=O)NC(=O)NC(C)=O)c1ccccc1 (stereo unspecified)	inactive

outcome lookup needed for CC(C)C(=O)Nc1cccc(C(F)(F)F)c1 , thanks.
inactive

outcome lookup needed for CC1CC(=O)NN=C1c1ccc(NCC(C)(C)NCC(O)COc2cc(Cl)ccc2C#N)cc1 (stereo unspecified) , thanks.
inactive

outcome lookup needed for COc1ccc(OC(=O)N(CC(=O)O)Cc2ccc(OCCc3nc(-c4ccccc4)oc3C)cc2)cc1 , thanks.
inactive

outcome lookup needed for Nc1ncnc2nc[nH]c12 , thanks.
inactive

outcome lookup needed for CCN(CC)CC(=O)Oc1ccc(NC(C)=O)cc1 , thanks.
inactive

outcome lookup needed for NS(=O)(=O)c1ccc(N2CCCCS2(=O)=O)cc1 , thanks.
inactive

====

experiment.summary: Cell Viability - LYMP2-020 (AID 986);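 also: cells exposed to compound for 24 h at 37 °C; nearly all actives have a fitted effect of over 55% in size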
reported.conditions: series mostly up to 92.2 µM
Inconclusive results are not listed. Activity calls are given as the source filed them. Calls come from the whole dose curve; as a rule, active = well fitted cell-killing curve with a large enough effect; inconclusive = small, poorly fitted or top-dose-only effect; inactive = flat fitted curve, though single readings scatter.
Outcome field: choose from active, inactive

Consider the following illustrative entries.
1. Cc1cc(C(C)(C)C)c(O)c(C(C)(C)C)c1	inactive
2. Nc1cccc2c(N)cccc12	inactive
3. C1=CC2C3C=CC(C3)C2C1 (stereo not given)	inactive
4. O=C(NO)c1ccccc1	inactive
5. c1ccc2occc2c1	inactive

Hi, sorry to bother you, what did the test record for CCCC(=O)c1cc(O)c(O)cc1O ?
inactive

Hi, sorry to bother you, what did the test record for Nc1c2ccccc2nc2ccccc12 ?
active

Hi, sorry to bother you, what did the test record for Nc1ccc(O)cc1 ?
active

Hi, sorry to bother you, what did the test record for CC(C)(C)c1ccc(O)c(O)c1 ?
active

Hi, sorry to bother you, what did the test record for OCc1c[nH]c2ccccc12 ?
inactive
